Record form. Attribute: TGI. Fill in for each entry.
test system: UACC-257 melanoma; experiment: NCI tumour cell line growth inhibition, 48 h

Request the reported TGI associated with Fc1ccc(-c2sc(-c3ccsc3)cc2Cc2ccsc2)cc1 > 10 µM

Request the reported TGI associated with Cc1ccccc1NC(=O)Cc1csc(N/N=C2\NC(=O)/C(=C/c3cccc([N+](=O)[O-])c3)S2)n1 41.9 µM

Request the reported TGI associated with CC(=O)C(=O)NC1/C=C(C)\C=C/C(O)C/C=C(C)\C=C/C(O)CC2OC(=O)C1(C)C(=O)C2C (centres undefined) > 100 µM

Request the reported TGI associated with O=C1c2cc(I)ccc2N2CCN=C2N1Cc1ccccc1 > 100 µM

Request the reported TGI associated with CCCCCCSc1nc(N)nc2nc[nH]c12 > 100 µM

Request the reported TGI associated with Nc1nc(Cl)cc(OCC2(CO)CCCC2)n1 > 100 µM

Request the reported TGI associated with O=C1c2ccccc2C(=O)N1n1c(Cc2ccc(Cl)cc2)n[nH]c1=O > 100 µM

Request the reported TGI associated with Cn1cc(C2=C(c3c4n(c5ccccc35)CCNC4)C(=O)NC2=O)c2ccccc21 > 20.2 µM

Request the reported TGI associated with Cc1cc2c(c(C(=O)NCC(=O)N[C@@H](C)C(=O)OCc3ccccc3)c1)Oc1c(cc(C)cc1C(=O)NCC(=O)N[C@@H](C)C(=O)OCc1ccccc1)S2 > 100 µM

Request the reported TGI associated with CCN1c2ccccc2NC(=S)c2c1n[nH]c2-c1ccccc1 > 100 µM

Request the reported TGI associated with CN(C)C1CCN(Cc2ccc(NC(=O)c3cncc(C#Cc4cnc(N)c5ncccc45)c3)cc2C(F)(F)F)CC1 3.97 µM

Request the reported TGI associated with CC(C)(C)N/N=C(\C(=O)Nc1cccc(Cl)c1)C1C(=O)Nc2ccccc2S1=O (centres undefined) > 100 µM

Request the reported TGI associated with CCCCCCC1N=C(N)N=C(N)N1c1cccc(Cl)c1 (centres undefined) 29.5 µM

Request the reported TGI associated with N#Cc1c(N)oc(-c2ccc([N+](=O)[O-])cc2)c1C#N 62 µM

Request the reported TGI associated with COc1ccc(/C=C/C(=O)c2c(O)ccc3c(C)c(C(=O)O)oc23)cc1 > 100 µM

Request the reported TGI associated with Cc1cc(Cl)nc2ccc(Cc3ccc4nc(Cl)cc(C)c4c3)cc12 > 100 µM

Request the reported TGI associated with COc1cc2c3c(n(CCCN(CCCN(CCCn4c5c(c6ccccc6c4=O)C(=O)c4ccccc4-5)C(=O)OC(C)(C)C)C(=O)OC(C)(C)C)c(=O)c2cc1OC)-c1cc2c(cc1C3=O)OCO2 > 100 µM

Request the reported TGI associated with O=C([O][Hg][c]1ccccc1)c1ccccc1 3.03 µM

Request the reported TGI associated with COc1ccc(Nc2nc3cc(C(F)(F)F)ccc3nc2-c2ccccc2)cc1OC 99.4 µM

---

tested on: UO-31 renal; experiment: NCI tumour cell line growth inhibition, 48 h
Record form. Attribute: TGI. Fill in for each entry.

Request the reported TGI associated with COc1cc(C2c3cc4c(cc3OC(NNC(N)=O)C2C)OCO4)cc(OC)c1OC (stereo not given) > 72.6 µM

Request the reported TGI associated with CCn1c2nc(=O)n(CCCCCCCCSC(c3ccccc3)(c3ccccc3)c3ccccc3)c(=O)c-2nc2ccccc21 > 100 µM

Request the reported TGI associated with COc1ccc2c(c1)[n+]([O-])c(-c1cccc(Cl)c1)c(N)[n+]2[O-] > 100 µM

Request the reported TGI associated with O=C1c2cc(I)ccc2N2CCN=C2N1Cc1ccccc1 > 100 µM

Request the reported TGI associated with O=C1Nc2ccccc2/C1=C\c1c(-c2ccccc2)nc2sccn12 13.3 µM

---

tested on: UACC-62 melanoma; assay: NCI tumour cell line growth inhibition, 48 h
quantityMeasured: TGI

Request the reported TGI associated with CC(C)=CC1C(C(=O)Oc2ccccc2C(C)C)C1(C)C (stereo not given) > 100 µM

Request the reported TGI associated with COc1cc(OC)cc(Oc2cnc3cc(N)cc(N)c3n2)c1 27.8 µM

Request the reported TGI associated with COC1OCC(O)C(NC(=O)N(C)N=O)C1O (stereo not given) > 100 µM

Request the reported TGI associated with COc1cc(-c2cc3ncccc3c3nc(OCCN(C)C)c4cccnc4c23)cc(OC)c1OC 2.45 µM

Request the reported TGI associated with O=c1[nH]c(=O)c2ncn(-c3ccc([N+](=O)[O-])cn3)c2[nH]1 > 100 µM

Request the reported TGI associated with CCOP(=O)(CCCC(O)CNc1nc(N)nc(Cl)c1N=Nc1ccc(Cl)cc1)OCC (stereo not given) 19.1 µM

Request the reported TGI associated with Nc1nc(NCCOCP(=O)(O)O)c([N+](=O)[O-])c(=O)[nH]1 > 100 µM

Request the reported TGI associated with CN(C)CCNC(=O)c1cccc2ccc(-c3ccc(Br)cc3)nc12 3.6 µM

Request the reported TGI associated with CS(=O)(=O)N1CCC(n2c(=O)c(Oc3ccc(F)cc3F)cc3cnc(NC4CCOCC4)nc32)CC1 > 25 µM

Request the reported TGI associated with O=C(CCCn1c2c(sc3ccccc32)c(=O)n2nnc(-c3ccccc3)c12)NCCc1cnc[nH]1 3.39 µM

---

tested on: IGROV1 ovarian; test: NCI tumour cell line growth inhibition, 48 h
Record form. Attribute: GI50. Fill in for each entry.

Request the reported GI50 associated with COc1ccc(/C=C/C(=O)c2c(O)ccc3c(C)c(C(=O)O)oc23)cc1 > 100000 nM

Request the reported GI50 associated with O=C(CCCn1c2c(sc3ccccc32)c(=O)n2nnc(-c3ccccc3)c12)NCCc1cnc[nH]1 99.7 nM

Request the reported GI50 associated with COC(=O)c1cc(NC(=O)c2cc(NC(=O)c3cc([N+](=O)[O-])n(C)c3)cn2C)cn1C > 100000 nM

Request the reported GI50 associated with CN1CC=C(c2cc(NC(=O)Nc3ccc(Oc4ccnc(NC(=O)C5CC5)c4)c(F)c3)cc(C(F)(F)F)c2)CC1 244 nM

Request the reported GI50 associated with Oc1c(C(Nc2ccccn2)c2cccc(Oc3ccccc3)c2)ccc2cccnc12 (configuration not stated) 538 nM

Request the reported GI50 associated with O=C([O][Hg][c]1ccccc1)c1ccccc1 1480 nM

Request the reported GI50 associated with NC(=O)c1cccc2c(N[C@H](CN3CCC3)c3ccc(Cl)c(C(F)(F)F)c3)ncnc12 98.9 nM

---

test system: NCI-H226 lung; test: NCI tumour cell line growth inhibition, 48 h
quantityMeasured: GI50

Request the reported GI50 associated with C/C(CCC(=O)O)=N/Nc1ccc([N+](=O)[O-])cc1 > 100 µM

Request the reported GI50 associated with CN1CC=C(c2cc(NC(=O)Nc3ccc(Oc4ccnc(NC(=O)C5CC5)c4)c(F)c3)cc(C(F)(F)F)c2)CC1 1.35 µM

Request the reported GI50 associated with COC(=O)c1cc(NC(=O)c2cc(NC(=O)c3cc([N+](=O)[O-])n(C)c3)cn2C)cn1C 39.9 µM

Request the reported GI50 associated with CNS(=O)(=O)OCC1OC(n2cnc3cncnc32)C(O)C1O (centres undefined) > 100 µM

Request the reported GI50 associated with COC1=CC(c2ccc[nH]2)=N/C1=C\c1[nH]c(C)c(C(=O)CCC(=O)Oc2ccc3c(c2)CCC2C3CC[C@]3(C)[C@@H](O)CC[C@@H]23)c1C (some centres undefined) 4.77 µM

Request the reported GI50 associated with NC(=O)c1cccc2c(N[C@H](CN3CCC3)c3ccc(Cl)c(C(F)(F)F)c3)ncnc12 1.99 µM

Request the reported GI50 associated with Cc1ccc(-c2nc3nc(-c4ccc(F)cc4)nc(N4CCNCC4)c3o2)cc1 10.6 µM

Request the reported GI50 associated with O=C(CN1CCN(Cc2ccccc2Cl)CC1)NC1CC(=O)c2c(Br)sc(Br)c21 (centres undefined) 23.9 µM

Request the reported GI50 associated with Cn1cc(C2=C(c3c4n(c5ccccc35)CCNC4)C(=O)NC2=O)c2ccccc21 13.8 µM

---

tested on: PC-3 prostate; assay: NCI tumour cell line growth inhibition, 48 h; in the data active means GI50 below about 0.43 µM; inactive means the rest
Give your call using only these classes: T (active), F (inactive)

Hi, do you know how OCc1ccc(-c2csc(-c3ccc(CO)o3)c2)o1 came out in this test? F

Hi, do you know how CN(C)C1CCN(Cc2ccc(NC(=O)c3cncc(C#Cc4cnc(N)c5ncccc45)c3)cc2C(F)(F)F)CC1 came out in this test? F

Hi, do you know how COc1cc2c3c(n(CCCN4CCNCC4)c(=O)c2cc1OC)-c1cc2c(cc1C3=O)OCO2 came out in this test? F

Hi, do you know how CNC(=O)c1nn(C)c2c1C(C)(C)Cc1cnc(Nc3cccc(N4CCN(C)CC4)c3)nc1-2 came out in this test? T

Hi, do you know how O=C(CN1CCN(Cc2ccccc2Cl)CC1)NC1CC(=O)c2c(Br)sc(Br)c21 (stereo not given) came out in this test? F

Hi, do you know how O=C(Cn1c(C(=O)c2ccc(Cl)cc2)nc(-c2ccc(Cl)cc2)c1-c1ccc(Cl)cc1)c1ccccc1 came out in this test? F

Hi, do you know how COC(=O)c1ccc2nc(-c3cc4ccccc4n3C)n(CCCCOc3cc4c(cc3OC)C(=O)N3CCC[C@H]3C=N4)c2c1 came out in this test? F

Hi, do you know how CNS(=O)(=O)OCC1OC(n2cnc3cncnc32)C(O)C1O (stereo not given) came out in this test? F

Hi, do you know how COC(=O)c1cc(NC(=O)c2cc(NC(=O)c3cc([N+](=O)[O-])n(C)c3)cn2C)cn1C came out in this test? F

Hi, do you know how COc1cc(OC)cc(Oc2cnc3cc(N)cc(N)c3n2)c1 came out in this test? F

Hi, do you know how C/C(CCC(=O)O)=N/Nc1ccc([N+](=O)[O-])cc1 came out in this test? F

Hi, do you know how CC(c1cc(Cl)ccc1O)c1cc(Cl)ccc1O came out in this test? F

Hi, do you know how O=C(/C=C/C12c3ccccc3C(c3ccccc31)C1C(=O)N(c3ccc(Cl)cc3)C(=O)C12)c1ccccn1 (stereo not given) came out in this test? T

Hi, do you know how CCN1CCC(CC(=O)Nc2n[nH]c3nnc(-c4cccc(F)c4F)cc23)CC1 came out in this test? F

Hi, do you know how COc1ccc(/C=C/C(=O)c2c(O)ccc3c(C)c(C(=O)O)oc23)cc1 came out in this test? F
